Tested on: Plasmodium falciparum
test_description: Antimalarial activity against chloroquine-resistant Plasmodium falciparum Dd2 assessed as inhibition of parasite growth incubated for 72 hrs by SYBR green I-based DNA quantification assay
Type: functional, organism-based
measurement_context: Dd2, 72 h
Reported values of pEC50 for individual entries
Entry type: numeric. Quantity: pEC50, the -log10 of concentration in molar units.

Solved cases (6 shown):
CCN1CCC2(CCc3ccc4ccccc4c3O2)CC1 :: 6.26
c1ccc2c3c(ccc2c1)CCC1(CCN(CCC2CCCCC2)CC1)O3 :: 5.83
O=C1CC2(CCN(CCc3ccccc3)CC2)Oc2c1ccc1ccccc21 :: 6.28
OC1CC2(CCN(Cc3ccccc3)CC2)Oc2c1ccc1ccccc21 (stereo unspecified) :: 6.03
Fc1ccc(CCN2CCC3(C=Cc4ccc5ccccc5c4O3)CC2)cc1F :: 5.70
O=C1CC2(CCN(CCC3CCCCC3)CC2)Oc2c1ccc1ccccc21 :: 6.15

For this molecule ( O[C@@H](CN1CCC2(CC1)C[C@H](O)c1ccc3ccccc3c1O2)c1ccc(F)c(F)c1 ), measured pEC50 is 5.89

* * *

test_description: Cytotoxicity against human HepG2 cells assessed as reduction in cell viability incubated for 48 hrs by MTS assay
Assay type: toxicity, cell-based
Reported values of EC50 at 48 h for individual entries

Solved cases (2 shown):
Fc1ccc(CCN2CCC3(C=Cc4ccc5ccccc5c4O3)CC2)cc1F :: 13 µM
OC1CC2(CCN(CCc3ccc(F)c(F)c3)CC2)Oc2c1ccc1ccccc21 (stereo not drawn) :: > 20 µM

From here, focus on the item given below.
For this molecule ( OC(CN1CCC2(CC1)CC(O)c1ccc3ccccc3c1O2)c1ccc(F)c(F)c1 (stereo not drawn) ), measured EC50 at 48 h is > 20 µM

* * *

test_description: Aqueous solubility of the compound at pH 2 by HPLC analysis
Assay type: physicochemical
measurement_context: aqueous solution
quantity_name: solubility

O=C1CC2(CCNCC2)Oc2c1ccc1ccccc21 :: ≥ 80 µM

For this compound ( CCN1CCC2(CCc3ccc4ccccc4c3O2)CC1 ), measured solubility is ≤ 10 µM

For this compound ( CCN1CCC2(CC1)CC(=O)c1ccc3ccccc3c1O2 ), measured solubility is ≥ 80 µM

For this compound ( OC1CC2(CCN(CCc3ccc(F)c(F)c3)CC2)Oc2c1ccc1ccccc21 (stereo not given) ), measured solubility is ≥ 80 µM

For this compound ( O=C1CC2(CCN(CCc3ccc(F)c(F)c3)CC2)Oc2c1ccc1ccccc21 ), measured solubility is ≥ 80 µM

* * *

Reported values of selectivity ratio for individual entries
test_description: Selectivity index, ratio of EC50 for cytotoxicity against human HepG2 cells to EC50 for antimalarial activity against chloroquine-resistant Plasmodium falciparum Dd2
Type: toxicity, cell-based
measurement_context: read-out: Ratio EC50

Solved cases (2 shown):
CCN1CCC[C@@]2(CC(=O)c3ccc4ccccc4c3O2)C1 :: < 1.6
OC(CN1CCC2(CCc3ccc4ccccc4c3O2)CC1)c1ccc(F)c(F)c1 (configuration not stated) :: > 10.4

For this molecule ( OC1CC2(CCNCC2)Oc2c1ccc1ccccc21 (configuration not stated) ), measured selectivity ratio is > 54.5

For this molecule ( O=C(Cc1ccc(F)c(F)c1)N1CCC2(CCc3ccc4ccccc4c3O2)CC1 ), measured selectivity ratio is < 1

For this molecule ( O=C(Cc1ccc(F)c(F)c1)N1CCC2(CC1)CC(O)c1ccc3ccccc3c1O2 (configuration not stated) ), measured selectivity ratio is < 1

For this molecule ( O[C@H](CN1CCC2(CC1)C[C@@H](O)c1ccc3ccccc3c1O2)c1ccc(F)c(F)c1 ), measured selectivity ratio is < 7

For this molecule ( CCN1CCC[C@@]2(CC(O)c3ccc4ccccc4c3O2)C1 (some centres not stated) ), measured selectivity ratio is > 28.8

For this molecule ( OC1C[C@@]2(CCCN(CCc3ccc(F)c(F)c3)C2)Oc2c1ccc1ccccc21 (some centres not stated) ), measured selectivity ratio is > 34.5

For this molecule ( O=C(CN1CCC2(CC1)CC(O)c1ccc3ccccc3c1O2)c1ccc(F)c(F)c1 (configuration not stated) ), measured selectivity ratio is < 6.7

For this molecule ( C1=CC2(CCNCC2)Oc2c1ccc1ccccc21 ), measured selectivity ratio is > 45.6

For this molecule ( OC1CC2(CCN(CCc3ccc(F)c(F)c3)CC2)Oc2c1ccc1ccccc21 (configuration not stated) ), measured selectivity ratio is > 32.5

For this molecule ( O=C1CC2(CCN(CC(O)c3ccc(F)c(F)c3)CC2)Oc2c1ccc1ccccc21 (configuration not stated) ), measured selectivity ratio is > 6.1

* * *

Reported values of solubility for individual entries
test_description: Aqueous solubility of the compound at pH 6.5
measurement_context: aqueous solution

CCN1CCC2(CCc3ccc4ccccc4c3O2)CC1 :: ≤ 10 µM
OC1CC2(CCN(CCc3ccc(F)c(F)c3)CC2)Oc2c1ccc1ccccc21 (stereo not given) :: ≥ 80 µM
O=C1CC2(CCN(C(=O)Cc3ccc(F)c(F)c3)CC2)Oc2c1ccc1ccccc21 :: ≤ 10 µM
CCN1CCC2(CC1)CC(=O)c1ccc3ccccc3c1O2 :: ≥ 80 µM

From here, focus on the item given below.
For this compound ( OC1CC2(CCNCC2)Oc2c1ccc1ccccc21 (stereo not given) ), measured solubility is ≤ 10 µM

* * *

test_description: Octanol-water distribution coefficient, logD of the compound at pH 3 by HPLC-based analysis
Type: physicochemical
quantity_name: logD

O=C(Cc1ccc(F)c(F)c1)N1CCC2(CC1)CC(O)c1ccc3ccccc3c1O2 (stereo unspecified) :: 2.04
O=C1CC2(CCN(CCC3CCCCC3)CC2)Oc2c1ccc1ccccc21 :: 2.99
OC1CC2(CCN(CCc3ccc(F)c(F)c3)CC2)Oc2c1ccc1ccccc21 (stereo unspecified) :: 2.62
O=C1CC2(CCN(CCc3ccc(F)c(F)c3)CC2)Oc2c1ccc1ccccc21 :: 2.56
O=C(Cc1ccc(F)c(F)c1)N1CCC2(CCc3ccc4ccccc4c3O2)CC1 :: 4.02

From here, focus on the item given below.
For this compound ( O=C(CN1CCC2(CC1)CC(O)c1ccc3ccccc3c1O2)c1ccc(F)c(F)c1 (stereo unspecified) ), measured logD is 1.53

* * *

test_description: Aqueous solubility of the compound at pH 6.5
measurement_context: aqueous solution
Reported values of solubility for individual entries

O=C1CC2(CCNCC2)Oc2c1ccc1ccccc21 :: ≥ 80 µM
O=C1CC2(CCN(CC(O)c3ccc(F)c(F)c3)CC2)Oc2c1ccc1ccccc21 (stereo not drawn) :: ≤ 10 µM

From here, focus on the item given below.
For this compound ( OC(CN1CCC2(CCc3ccc4ccccc4c3O2)CC1)c1ccc(F)c(F)c1 (stereo not drawn) ), measured solubility is ≤ 10 µM

* * *

test_description: Octanol-water distribution coefficient, logD of the compound at pH 7.4 by HPLC-based analysis
Type: physicochemical
Classify as follows. Reported logD greater than or equal to 4: Yes. Reported logD below: No.

Sample answers from the record:
O=C1CC2(CCN(CCC3CCCCC3)CC2)Oc2c1ccc1ccccc21 :: Yes
OC1CC2(CCN(CCC3CCCCC3)CC2)Oc2c1ccc1ccccc21 (configuration not stated) :: No
O=C1CC2(CCN(CCc3ccc(F)c(F)c3)CC2)Oc2c1ccc1ccccc21 :: No
O=C(CN1CCC2(CC1)CC(O)c1ccc3ccccc3c1O2)c1ccc(F)c(F)c1 (configuration not stated) :: No
CCN1CCC2(CCc3ccc4ccccc4c3O2)CC1 :: No
O=C(CN1CCC2(CC1)CC(=O)c1ccc3ccccc3c1O2)c1ccc(F)c(F)c1 :: No

For the next question, use this compound.
*Q* Identify whether the reported logD of the following compound is 4 or greater: O=C1CC2(CCN(CC(O)c3ccc(F)c(F)c3)CC2)Oc2c1ccc1ccccc21 (configuration not stated)
*A* Yes

* * *

test_description: Cytotoxicity against human HepG2 cells assessed as reduction in cell viability incubated for 48 hrs by MTS assay
Type: toxicity, cell-based
Reported values of EC50 at 48 h for individual entries
Unit µM implied. Number only.

O=C1C[C@@]2(CCCNC2)Oc2c1ccc1ccccc21 :: 5
CCN1CCC2(C=Cc3ccc4ccccc4c3O2)CC1 :: 12
OC1CC2(CCN(CCCc3ccccc3)CC2)Oc2c1ccc1ccccc21 (stereo not given) :: 1

For this compound ( O=C1CC2(CCN(CCC3CCCCC3)CC2)Oc2c1ccc1ccccc21 ), measured EC50 at 48 h is 16

For this compound ( O[C@@H]1CC2(CCN(C[C@H](O)c3ccc(F)c(F)c3)CC2)Oc2c1ccc1ccccc21 ), measured EC50 at 48 h is 17

* * *

Tested on: Plasmodium falciparum
test_description: Antimalarial activity against chloroquine-resistant Plasmodium falciparum Dd2 assessed as inhibition of parasite growth incubated for 72 hrs by SYBR green I-based DNA quantification assay
Type: functional, organism-based
measurement_context: Dd2, 72 h
Reported values of EC50 for individual entries

O=C1CC2(CCN(CCc3ccc(Cl)c(Cl)c3)CC2)Oc2c1ccc1ccccc21 :: > 2500 nM
O=C(CN1CCC2(CCc3ccc4ccccc4c3O2)CC1)c1ccc(F)c(F)c1 :: > 2500 nM

For this molecule ( CCN1CCC[C@@]2(CC(=O)c3ccc4ccccc4c3O2)C1 ), measured EC50 is > 2500 nM

For this molecule ( c1cc2c(c3c1CCCC3)OC1(CCNCC1)CC2 ), measured EC50 is > 2500 nM
